Where do these numbers come from? They come from ChEMBL document CHEMBL4699421.

- experimentDescription: Selectivity index, ratio of CC50 for monkey LLC-MK2 cells assessed as reduction in cell viability incubated for 72 hrs by MTT assay to EC50 for Trypanosoma cruzi Tulahuen LacZ intracellular amastigote form infected in monkey LLC-MK2 cells incubated for 72 hrs by chlorophenol red beta-D-galactopyranoside substrate based spectrophotometric assay
- Assay type: toxicity
- conditionInfo: read-out: Ratio CC50/EC50
valueType: selectivity ratio at 72 h

O=C(N[C@@H](Cc1ccccc1)C(=O)Nc1cnoc1)OCc1ccccc1	> 3.9
CN(C#N)N(C)C(=O)[C@H](Cc1ccccc1)NC(=O)OCc1ccccc1	1.9
CCOC(=O)/C=C/C1(NC(=O)[C@H](Cc2ccccc2)NC(=O)OCc2ccccc2)CC1	> 1.2

Please give measured selectivity ratio at 72 h of the following entry: "N#CCNC(=O)[C@H](Cc1ccccc1)NC(=O)OCc1ccccc1"
1.1

----------
Catalogue of pKi values
- testedOn: Cruzipain (Trypanosoma cruzi, UniProt P25779)
- Sequence (P25779 whole entry): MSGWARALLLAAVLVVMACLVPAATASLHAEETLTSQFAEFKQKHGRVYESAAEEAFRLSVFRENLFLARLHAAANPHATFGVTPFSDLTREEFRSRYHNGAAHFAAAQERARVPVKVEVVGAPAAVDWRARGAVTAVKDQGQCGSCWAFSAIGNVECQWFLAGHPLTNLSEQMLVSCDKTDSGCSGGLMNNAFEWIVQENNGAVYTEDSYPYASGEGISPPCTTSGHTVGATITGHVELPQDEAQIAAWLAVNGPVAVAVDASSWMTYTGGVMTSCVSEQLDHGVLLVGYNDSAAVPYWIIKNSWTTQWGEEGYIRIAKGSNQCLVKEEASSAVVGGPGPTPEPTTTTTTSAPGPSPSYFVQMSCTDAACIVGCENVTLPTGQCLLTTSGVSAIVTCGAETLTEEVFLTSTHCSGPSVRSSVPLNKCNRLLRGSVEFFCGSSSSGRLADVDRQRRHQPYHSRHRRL
- experimentDescription: Covalent inhibition of Trypanosoma cruzi cruzipain using Z-Phe-Arg-7-amidomethylcoumarin as substrate measured after 5 mins by fluorometric analysis
Bear in mind: pKi is minus log10 of a mol/L concentration; give just that figure.

// known answers, use as guide
O=C(N[C@@H](Cc1ccccc1)C(=O)Nc1cnoc1)c1ccccc1	4.70
CON(C)C(=O)CNC(=O)[C@H](Cc1ccccc1)NC(=O)OCc1ccccc1	4.00
O=C(N[C@@H](Cc1c[nH]c2ccccc12)C(=O)Nc1cnoc1)c1ccccc1	5.00

Now take the following compound into account.
Indicate its recorded pKi; the compound in question is "O=C(N[C@@H](Cc1ccccc1)C(=O)NC/C=N/O)OCc1ccccc1"
5.00

----------
- experimentDescription: L-Cysteine reactivity in pH 7.4 phosphate buffer assessed as half life at 2.5 mM by HPLC analysis
- Assay type: physicochemical
- conditionInfo: phosphate buffer with L-cysteine
Where a SMILES comes first, the peptide text is derived from it. [ ]: non-standard residue; d: D form. The star is where a group is joined. Cbz = O=C(OCc1ccccc1)*; Ac3c = NC1(C(=O)O)CC1
valueType: half-life at 2500 µM (min)
A number alone suffices; assume min.

Hello, please tell me recorded half-life at 2500 µM for this one: O=CC1(NC(=O)[C@H](Cc2ccccc2)NC(=O)OCc2ccccc2)CC1 (Cbz-Phe-[Ac3c]-aldehyde)
22.2

----------
- experimentDescription: Cytotoxicity against monkey LLC-MK2 cells assessed as reduction in cell viability incubated for 72 hrs by MTT assay
- Type: cell-based, Macaca mulatta
- conditionInfo: rhesus monkey
valueType: CC50 at 72 h

Consider the worked cases shown below.
CCN(CC)C(=O)/C=C/C1(NC(=O)[C@H](Cc2ccccc2)NC(=O)OCc2ccccc2)CC1	> 100 µM
CN(C#N)N(C)C(=O)[C@H](Cc1ccccc1)NC(=O)OCc1ccccc1	42 µM
Cc1coc(NC(=O)[C@H](Cc2ccccc2)NC(=O)OCc2ccccc2)n1	> 100 µM
N#CC1(NC(=O)[C@H](Cc2ccccc2)NC(=O)OCc2ccccc2)CC1	> 100 µM

For "CCOC(=O)/C=C/C1(NC(=O)[C@H](Cc2ccccc2)NC(=O)OCc2ccccc2)CC1" , write its CC50 at 72 h.
> 100 µM

----------
- experimentDescription: L-Cysteine reactivity in pH 7.4 phosphate buffer assessed as decay constant
- Format: physicochemical
Where a SMILES comes first, the peptide text is derived from it. [ ]: non-standard residue; d: D form. The star is where a group is joined. Cbz = O=C(OCc1ccccc1)*; Ac3c = NC1(C(=O)O)CC1
Each entry below carries its reported K.

N#CCNC(=O)[C@H](Cc1ccccc1)NC(=O)c1ccccc1	9.33 10^-2/min
O=CC1(NC(=O)[C@H](Cc2ccccc2)NC(=O)OCc2ccccc2)CC1 (Cbz-Phe-[Ac3c]-aldehyde)	3.12 10^-2/min
N#CC1(NC(=O)[C@H](Cc2ccccc2)NC(=O)c2ccccc2)CC1	0.436 10^-2/min

Dear colleague, please send me the reported K for COC(=O)C1=C(C#N)NC(C)=C(C(=O)OC(C)C)C1c1cccc([N+](=O)[O-])c1 (centres undefined) when you can.
1.41 10^-2/min

----------
- experimentDescription: Selectivity index, ratio of CC50 for human U2OS cells assessed as reduction in cell viability incubated for 72 hrs by MTT assay to EC50 for Trypanosoma cruzi […]
- Type: toxicity, cell-based
- conditionInfo: read-out: Ratio CC50/EC50
valueType: selectivity ratio at 72 h

N#CC1(NC(=O)[C@H](Cc2ccccc2)NC(=O)OCc2ccccc2)CC1	4.4

Provide one value: measured selectivity ratio at 72 h of "O=C(N[C@@H](Cc1c[nH]c2ccccc12)C(=O)Nc1cnoc1)c1ccccc1"
> 8.2

----------
- experimentDescription: Selectivity index, ratio of CC50 for human U2OS cells assessed as reduction in cell viability incubated for 72 hrs by MTT assay to EC50 for Trypanosoma cruzi […]
- Type: toxicity, cell-based
- conditionInfo: read-out: Ratio CC50/EC50
Where a SMILES comes first, the peptide text is derived from it. [ ]: non-standard residue; d: D form. The star is where a group is joined. Cbz = O=C(OCc1ccccc1)*; Ac3c = NC1(C(=O)O)CC1
valueType: selectivity ratio at 72 h

CN(C#N)N(C)C(=O)[C@H](Cc1ccccc1)NC(=O)OCc1ccccc1	3.2
CNC(=O)/C=C/C1(NC(=O)[C@H](Cc2ccccc2)NC(=O)OCc2ccccc2)CC1	> 8.2
O=C(N[C@@H](Cc1ccccc1)C(=O)Nc1cnoc1)c1ccccc1	> 16.6
N#CCNC(=O)[C@H](Cc1ccccc1)NC(=O)OCc1ccccc1	> 27.8
O=CC1(NC(=O)[C@H](Cc2ccccc2)NC(=O)OCc2ccccc2)CC1 (Cbz-Phe-[Ac3c]-aldehyde)	58.4

Next compound, selectivity ratio at 72 h to be filled in.
// fetch selectivity ratio at 72 h given entry "O=C(N[C@@H](Cc1ccccc1)C(=O)Nc1cnoc1)OCc1ccccc1"
> 19.6
